Source of measurements: patent US20150038668A1

test: physchem; details: water, thermodynamic from solid
measured.attribute: solubility thermodynamic at 72 h (µg/mL)
Express the result in µg/mL but write the number alone.

compound | solubility thermodynamic at 72 h [µg/mL]
NC(N)=Nc1nc(CSCCC(N)=NS(N)(=O)=O)cs1 [Famotidine, famotidine] | 1000

Next, consider the following compound.
Entry CN(C)C(=O)C(CCN1CCC(O)(c2ccc(Cl)cc2)CC1)(c1ccccc1)c1ccccc1 [Loperamide, loperamide] , solubility thermodynamic at 72 h reported as 70
